Reported values of pIC50 for individual entries
test_details: Inhibition of Escherichia coli UTI89 PapD chaperon assessed as inhibition of biofilm formation
pIC50: −log10 of the molar value.
quantity: pIC50

> print(dat)
                                    molecule  value.observed
 1  O=C(O)c1c(-c2ccoc2)sc2c(C3CC3)c(Cc3cccc4ccccc34)cc(=O)n12            4.11
 2  O=C(O)c1c(-c2ccccc2)sc2c(C3CC3)c(Cc3cccc4ccccc34)cc(=O)n12            4.96
 3  CC(C)(O)c1sc2c(C3CC3)c(Cc3cccc4ccccc34)cc(=O)n2c1C(=O)O            3.52
 4  Cc1sc2c(C3CC3)c(Cc3cccc4ccccc34)cc(=O)n2c1C(=O)O            4.05
 5  CS(=O)(=O)NC(=O)c1c(-c2ccccc2)sc2c(C3CC3)c(Cc3cccc4ccccc34)cc(=O)n12            4.41
 6  O=C(Nc1ccccc1)c1sc2c(C3CC3)c(Cc3cccc4ccccc34)cc(=O)n2c1C(=O)O            3.80
 7  O=C(O)c1c(Cc2ccccc2)sc2c(C3CC3)c(Cc3cccc4ccccc34)cc(=O)n12            5.15
 8  Cc1cccc(-c2sc3c(C4CC4)c(Cc4cccc5ccccc45)cc(=O)n3c2C(=O)O)c1            4.96
 9  Cc1ccc(-c2sc3c(C4CC4)c(Cc4cccc5ccccc45)cc(=O)n3c2C(=O)O)cc1            4.89
10  O=C(O)c1c(-c2ccsc2)sc2c(C3CC3)c(Cc3cccc4ccccc34)cc(=O)n12            4.60
11  O=C(O)c1c(-c2ccco2)sc2c(C3CC3)c(Cc3cccc4ccccc34)cc(=O)n12            4.21
